Target: brain TCP (fraction IV) (Mus musculus, UniProt Q8C1W1)
Sequence (Q8C1W1 1-375): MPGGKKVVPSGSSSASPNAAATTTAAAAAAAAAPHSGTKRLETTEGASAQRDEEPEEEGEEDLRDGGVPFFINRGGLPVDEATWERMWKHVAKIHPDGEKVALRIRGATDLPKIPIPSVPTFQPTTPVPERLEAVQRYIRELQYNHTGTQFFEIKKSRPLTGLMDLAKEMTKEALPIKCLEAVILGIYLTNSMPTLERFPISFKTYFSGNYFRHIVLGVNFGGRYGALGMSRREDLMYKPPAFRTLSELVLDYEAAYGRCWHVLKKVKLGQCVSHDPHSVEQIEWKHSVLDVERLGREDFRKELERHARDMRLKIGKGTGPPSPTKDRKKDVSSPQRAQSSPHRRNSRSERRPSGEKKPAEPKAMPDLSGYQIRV
Sequence (Q99LQ4 1-66 partner): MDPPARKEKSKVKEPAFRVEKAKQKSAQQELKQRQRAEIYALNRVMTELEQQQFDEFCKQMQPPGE
pIC50: −log10 of the molar value.

Compound Structure: CCOC(=O)[C@H]1O[C@@H]1C(=O)N[C@@H](Cc1ccc(O)cc1)C(=O)O
pIC50: ~6.30
